System: MDA-MB-231
Assay: Antiproliferative activity against human MDA-MB-231 cells assessed as inhibition of cell proliferation incubated for 48 hrs by CCK-8 assay
Type: functional, cell-based
Conditions: MDA-MB-231, 48 h
Reported log10 IC50 values for the following compounds.
log10 IC50, µM

Would you please look over these solved cases?
# compound, assay_system, log10 IC50
measured = [
    ("Cc1cc(Nc2nc(-c3ccc(OS(=O)(=O)F)cc3)nc3cc(N4CCN(C)CC4)ccc23)n[nH]1", "MDA-MB-231", 0.64),
    ("CCC(=O)Nc1ccc(-c2nc(Nc3cc(C)[nH]n3)c3ccc(N4CCN(C)CC4)cc3n2)cc1", "MDA-MB-231", 0.34),
    ("Cc1cc(Nc2nc(-c3cccc(N)c3)nc3cc(N4CCOCC4)ccc23)n[nH]1", "MDA-MB-231", 0.84),
]

Consider Cc1cc(Nc2nc(-c3cccc(N)c3)nc3cc(N4CCN(C)CC4)ccc23)n[nH]1 . Its measured log10 IC50 is 0.24

get_value(item= Cc1cc(Nc2nc(-c3cccc(O)c3)nc3cc(N4CCN(C)CC4)ccc23)n[nH]1 , readout=log10 IC50) returns 0.17

Given item Cc1cc(Nc2nc(-c3ccc(O)cc3)nc3cc(N4CCN(C)CC4)ccc23)n[nH]1 , the value recorded as its log10 IC50 is 0.13

Reported log10 IC50 ( C=CC(=O)Nc1cccc(-c2nc(Nc3cc(C)[nH]n3)c3ccc(N4CCOCC4)cc3n2)c1 ) = 0.77

Value of log10 IC50 reported for the compound C=CC(=O)Nc1ccc(-c2nc(Nc3cc(C)[nH]n3)c3ccc(N4CCOCC4)cc3n2)cc1 is 0.42

Lab book: log10 IC50 of Cc1cc(Nc2nc(-c3ccccc3O)nc3cc(N4CCN(C)CC4)ccc23)n[nH]1 noted as 0.39

Entry Cc1cc(Nc2cc(N3CCN(C)CC3)nc(/C=C/c3ccccc3)n2)n[nH]1 [ENMD-2076] ; log10 IC50 = 0.72

Query C=CC(=O)Nc1ccccc1-c1nc(Nc2cc(C)[nH]n2)c2ccc(N3CCN(C)CC3)cc2n1 yields log10 IC50 of 1.13

For this compound ( Cc1cc(Nc2nc(-c3ccc(N)cc3)nc3cc(N4CCOCC4)ccc23)n[nH]1 ), measured log10 IC50 is 0.64

response.value for C=CC(=O)Nc1cccc(-c2nc(Nc3cc(C)[nH]n3)c3ccc(N4CCN(C)CC4)cc3n2)c1 (field: log10 IC50) = 0.41

log10 IC50 reported for this compound C=CC(=O)Nc1ccc(-c2nc(Nc3cc(C)[nH]n3)c3ccc(N4CCN(C)CC4)cc3n2)cc1 : 0.19

So for Cc1cc(Nc2nc(-c3ccccc3N)nc3cc(N4CCN(C)CC4)ccc23)n[nH]1 , the logged log10 IC50 turned out to be -0.12

----------
Target: Aurora kinase A (Homo sapiens, UniProt O14965)
Sequence (O14965 whole entry, the tested form may be a part): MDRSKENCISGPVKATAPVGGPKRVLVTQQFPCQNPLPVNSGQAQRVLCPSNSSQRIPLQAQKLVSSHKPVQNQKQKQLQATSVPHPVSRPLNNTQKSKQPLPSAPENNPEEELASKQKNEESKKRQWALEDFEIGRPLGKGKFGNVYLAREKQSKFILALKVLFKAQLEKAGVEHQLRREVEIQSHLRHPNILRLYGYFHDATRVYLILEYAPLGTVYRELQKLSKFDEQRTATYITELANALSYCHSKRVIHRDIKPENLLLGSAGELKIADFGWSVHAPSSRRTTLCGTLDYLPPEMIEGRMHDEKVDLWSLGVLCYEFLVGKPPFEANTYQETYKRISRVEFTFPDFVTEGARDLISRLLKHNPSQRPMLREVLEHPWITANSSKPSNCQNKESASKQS
Assay: Inhibition of recombinant human Aurora A (1 to 403 residues) expressed in Escherichia coli using STK-substrate 2-biotin as substrate incubated for 40 mins in presence of 0.48 uM ATP by HTRF assay
quantity_kind: pIC50
Reminder that pIC50 means the negative base-10 logarithm of the concentration expressed in mol/L.

Query C=CC(=O)Nc1ccc(-c2nc(Nc3cc(C)[nH]n3)c3ccc(N4CCN(C)CC4)cc3n2)cc1 yields pIC50 of 8.81
